Cited source for all entries: the supplement of paper PMC11061612

- Tested on: MFH-ino (Other Solid Carcinomas)
- measurement notes: Bliss excess, mean over the matrix (fraction); higher = more synergy
We begin with a simple list: items and their reported Bliss excess.
API note: the answer field is a bare number with no unit suffix.

// worked examples, Bliss excess included
>  <molecule>
CN(CCO)CC[C@H](CSc1ccccc1)Nc1ccc(S(=O)(=O)NC(=O)c2ccc(N3CCC([C@@H](O)c4ccccc4-c4ccc(Cl)cc4)CC3)cc2)cc1S(=O)(=O)C(F)(F)F [AZD4320] + Nc1ccn([C@@H]2O[C@H](CO)[C@@H](O)C2(F)F)c(=O)n1 [Gemcitabine] (first compound max 1 µM, 7x7, partner max 0.3 µM)

>  <Bliss excess>
-0.0252

$$$$
>  <molecule>
CC(=O)c1c(C)c2cnc(Nc3ccc(N4CCNCC4)cn3)nc2n(C2CCCC2)c1=O [Palbociclib] + CC1(C)CCC(CN2CCN(c3ccc(C(=O)NS(=O)(=O)c4ccc(NCC5CCOCC5)c([N+](=O)[O-])c4)c(Oc4cnc5[nH]ccc5c4)c3)CC2)=C(c2ccc(Cl)cc2)C1 [Venetoclax] (first compound max 10 µM, 7x7, partner max 1 µM)

>  <Bliss excess>
-0.0576

$$$$

Now for another entry.
Exercise: Name the reported Bliss excess value associated with the molecule Cn1cnc2c(F)c(Nc3ccc(Br)cc3Cl)c(C(=O)NOCCO)cc21 [Selumetinib] + C=CCn1c(=O)c2cnc(Nc3ccc(N4CCN(C)CC4)cc3)nc2n1-c1cccc(C(C)(C)O)n1 [AZD1775] (first compound max 10 µM, partner max 1 µM)
Solution: -0.0316

====

- Test system: OCI-AML2 (Acute Myeloid Leukemia)
- measurement notes: combination Emax (second highest fraction inhibited in the dose matrix, 72 h); higher = more inhibition; extreme values may be limits of the assay
measurement type: combination Emax

Below, each entry is followed by its recorded combination Emax result.
>  <molecule>
COc1cccc(OCCCN)c1-c1cc(Nc2cnc(C#N)cn2)n[nH]1 [Prexasertib] + O=C(c1cc(Cc2n[nH]c(=O)c3ccccc23)ccc1F)N1CCN(C(=O)C2CC2)CC1 [Olaparib] (first compound max 1 µM, 7x7, partner max 10 µM)

>  <combination Emax>
1

$$$$
>  <molecule>
C[C@@H](Oc1cc(-c2cnn(C3CCNCC3)c2)cnc1N)c1c(Cl)ccc(F)c1Cl [Crizotinib] + CC1=C(C(=CC=C1)Cl)NC(=O)C2=CN=C(S2)NC3=CC(=NC(=N3)C)N4CCN(CC4)CCO [Dasatinib] (first compound max 10 µM, 7x7, partner max 2 µM)

>  <combination Emax>
0.826

$$$$

Let us examine a further case.
Exercise: I'd like to know its combination Emax. The molecule in question is CN(CCO)CC[C@H](CSc1ccccc1)Nc1ccc(S(=O)(=O)NC(=O)c2ccc(N3CCC([C@@H](O)c4ccccc4-c4ccc(Cl)cc4)CC3)cc2)cc1S(=O)(=O)C(F)(F)F [AZD4320] + Nc1ccn([C@@H]2O[C@H](CO)[C@@H](O)C2(F)F)c(=O)n1 [Gemcitabine] (first compound max 1 µM, 7x7, partner max 0.3 µM)
Solution: 1

====

- System: ES7 (Ewing's Sarcoma)
- measurement notes: Bliss excess, mean over the matrix (fraction); higher = more synergy
measurement type: Bliss excess
Give your answer as a number; write no unit.

Check out these entries, answers already filled in.
>  <compound>
CN(CCO)CC[C@H](CSc1ccccc1)Nc1ccc(S(=O)(=O)NC(=O)c2ccc(N3CCC([C@@H](O)c4ccccc4-c4ccc(Cl)cc4)CC3)cc2)cc1S(=O)(=O)C(F)(F)F [AZD4320] + C[C@@H]1COCCN1C2=NC(=NC(=C2)C3(CC3)[S@](=N)(=O)C)C4=C5C=CNC5=NC=C4 [AZD6738] (first compound max 1 µM, 7x7, partner max 10 µM)

>  <Bliss excess>
0.0638

$$$$
>  <compound>
CC(=O)c1c(C)c2cnc(Nc3ccc(N4CCNCC4)cn3)nc2n(C2CCCC2)c1=O [Palbociclib] + Cc1c2c(nn1C)CSCc1cc(n(C)n1)CSc1cc(c3ccccc3c1)OCCCc1c(C(=O)O)n(C)c3c-2c(Cl)ccc13 [AZD5991] (first compound max 10 µM, 7x7, partner max 1 µM)

>  <Bliss excess>
-0.005

$$$$
>  <compound>
COc1cccc2c1C(=O)c1c(O)c3c(c(O)c1C2=O)C[C@@](O)(C(=O)CO)C[C@@H]3O[C@H]1C[C@H](N)[C@H](O)[C@H](C)O1 [Doxorubicin] + Cc1cc2ncnn2cc1Nc1ncc2c(n1)n(C1CCOCC1)c(=O)n2C [AZD7648] (first compound max 1 µM, 7x7, partner max 10 µM)

>  <Bliss excess>
0.0997

$$$$
>  <compound>
COc1nnc2ccc(N3CCC(c4ccc(OCCN5CCN(C)C(=O)[C@H]5C)cc4)CC3)nn12 [AZD5153] + Cc1c2c(nn1C)CSCc1cc(n(C)n1)CSc1cc(c3ccccc3c1)OCCCc1c(C(=O)O)n(C)c3c-2c(Cl)ccc13 [AZD5991] (first compound max 1 µM, 7x7, partner max 1 µM)

>  <Bliss excess>
0.0052

$$$$
>  <compound>
COc1nnc2ccc(N3CCC(c4ccc(OCCN5CCN(C)C(=O)[C@H]5C)cc4)CC3)nn12 [AZD5153] + Cn1cnc2c(F)c(Nc3ccc(Br)cc3Cl)c(C(=O)NOCCO)cc21 [Selumetinib] (first compound max 1 µM, 7x7, partner max 10 µM)

>  <Bliss excess>
-0.0502

$$$$

Exercise: Any idea what its Bliss excess is? The compound is O=C(c1cc(Cc2n[nH]c(=O)c3ccccc23)ccc1F)N1CCN(C(=O)C2CC2)CC1 [Olaparib] + CN(CC[C@H](CSC1=CC=CC=C1)NC2=C(C=C(C=C2)S(=O)(=O)NC(=O)C3=CC=C(C=C3)N4CCC(CC4)[C@H](C5=CC=CC=C5C6=CC=C(C=C6)Cl)O)S(=O)(=O)C(F)(F)F)CCO [AZD4320] (first compound max 10 µM, 7x7, partner max 1 µM)
Solution: 0.0156

Exercise: What value of measured Bliss excess is listed for Cn1cnc2c(F)c(Nc3ccc(Br)cc3Cl)c(C(=O)NOCCO)cc21 [Selumetinib] + CCN(CCO)CCCOc1ccc2c(Nc3cc(CC(=O)Nc4cccc(F)c4)[nH]n3)ncnc2c1 [AZD2811] (first compound max 10 µM, 7x7, partner max 1 µM) ?
Solution: -0.0524
